Target: Fuc(a1-3)[Gal(b1-4)]GlcNAc(b1-2)Man(a1-3)[Fuc(a1-3)[Gal(b1-4)]GlcNAc(b1-2)Man(a1-6)]Man(b1-4)GlcNAc(b1-4)GlcNAc
Experiment: glycan array binding signal (z-score within array); higher = stronger binding
Details: glycan notation: IUPAC condensed, linker removed
The entries come from a sample that favours the strongest signals as a whole.
assay_readout: glycan array binding signal (z-score)

Example results:
{"binder": "Jacalin (Artocarpus integrifolia) (protein) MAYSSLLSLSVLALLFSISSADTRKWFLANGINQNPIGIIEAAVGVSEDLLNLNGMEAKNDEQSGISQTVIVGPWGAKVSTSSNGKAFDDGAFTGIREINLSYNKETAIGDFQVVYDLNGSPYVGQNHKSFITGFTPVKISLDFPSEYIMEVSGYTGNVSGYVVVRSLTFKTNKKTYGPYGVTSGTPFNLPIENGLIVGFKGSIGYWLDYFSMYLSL", "glycan array binding signal (z-score)": -0.259}
{"binder": "Mermaid1 (Stilbonema majum) (protein) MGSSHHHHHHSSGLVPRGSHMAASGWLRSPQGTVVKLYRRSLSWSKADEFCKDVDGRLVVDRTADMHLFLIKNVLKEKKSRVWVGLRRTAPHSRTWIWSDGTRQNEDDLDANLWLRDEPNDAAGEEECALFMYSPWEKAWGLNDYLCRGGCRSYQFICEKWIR", "glycan array binding signal (z-score)": -0.717}

Attention now turns to another entry.
Exercise: Quick one: give measured glycan array binding signal (z-score) for PNA (Arachis hypogaea), P02872 (protein) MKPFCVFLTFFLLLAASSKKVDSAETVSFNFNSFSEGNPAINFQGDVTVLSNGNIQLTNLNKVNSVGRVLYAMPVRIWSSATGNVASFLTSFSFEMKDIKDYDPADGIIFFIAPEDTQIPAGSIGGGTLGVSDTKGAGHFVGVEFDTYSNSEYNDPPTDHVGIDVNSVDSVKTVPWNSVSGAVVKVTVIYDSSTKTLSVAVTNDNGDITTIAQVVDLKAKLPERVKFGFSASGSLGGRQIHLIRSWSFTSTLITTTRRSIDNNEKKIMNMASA
Solution: -0.106
